assay: NCI Yeast Anticancer Drug Screen. Data for the CLN2oe strain (AID 163);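 also: 0% = growth of vehicle-only control cultures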
study.conditions: S. cerevisiae CLN2oe strain, at 3.7 µM, stronger effect = higher value
About 79,000 compounds went through this panel and 15% of them were active in at least one assay; those are over-represented in the sample as a whole. Activity calls are given as the source filed them. Rule as the data show it: active = growth inhibition above about 70%; inactive = the rest.
assay.endpoint: growth inhibition

Some compounds with recorded growth inhibition:
- CCOC(=O)C(NC(=O)c1ccccc1)(N1CCN(c2cc3c(cc2F)c(=O)c(C(=O)O)cn3C2CC2)CC1)C(F)(F)F (stereo unspecified): 3% (inactive)
- O=C1OC(CCl)CN1/N=C/c1ccc([N+](=O)[O-])o1 (stereo unspecified): -8% (inactive)
- COc1ccc2c(c1)C(=O)c1ccccc1C2: -1% (inactive)
- O=C1NC(=O)C2C3C=CC(C3)C12 (stereo unspecified): -1% (inactive)
- C=CCC1=C(C)C(OC(=O)/C=C/c2ccccc2)CC1=O (stereo unspecified): 2% (inactive)

Now turn to the next compound.
Could you share which growth inhibition value was measured for Nc1ccn(C2OC(CO)C3[O][Sn]([c]4ccccc4)([c]4ccccc4)[O]C32)c(=O)n1 (stereo unspecified) ?
-1% (inactive)
